- measurement.target: human glucagon receptor (Homo sapiens (Human))
- Sequence (P47871 26-477): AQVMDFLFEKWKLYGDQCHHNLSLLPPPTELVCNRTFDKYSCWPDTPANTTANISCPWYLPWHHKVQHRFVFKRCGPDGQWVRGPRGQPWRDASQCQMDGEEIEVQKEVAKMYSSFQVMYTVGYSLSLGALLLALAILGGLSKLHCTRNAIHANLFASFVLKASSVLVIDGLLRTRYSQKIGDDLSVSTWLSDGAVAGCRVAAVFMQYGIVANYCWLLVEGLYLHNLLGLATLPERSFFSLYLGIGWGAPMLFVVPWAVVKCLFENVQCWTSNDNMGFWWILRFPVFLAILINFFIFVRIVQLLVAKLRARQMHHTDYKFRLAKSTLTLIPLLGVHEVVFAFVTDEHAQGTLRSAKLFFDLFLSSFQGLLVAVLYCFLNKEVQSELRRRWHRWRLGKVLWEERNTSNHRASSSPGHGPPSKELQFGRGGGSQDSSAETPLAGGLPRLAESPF
- protocol.details: Glucagon cAMP Assay (Cisbio cAMP detection)
- Assay type: cell-based
- experimental.conditions: CHOK1 cells stably transfected with the human glucagon receptor; block of glucagon induced cAMP production; Kb by modified Cheng-Prusoff equation
Measured Kb, listed per entry for reference.
Numbers only here, please. The scale is nM.

Cc1cc(OC(c2ccc(C(=O)NCCC(=O)O)cc2)C2CCCC2)cc(C)c1-n1cnc(C(F)(F)F)c1 (stereo not shown) : 247
Cc1nn(-c2ccc(NC(c3ccc(C(=O)NCCC(=O)O)cc3)C3CCCC3)cn2)cc1Cl (racemic) : 42.7
O=C(O)CCNC(=O)c1ccc(C(Nc2ccc(-n3cnc(C(F)(F)F)c3)nc2)C2CC(F)(F)C2)cc1 (racemic) : 629

Prompt line: // returns reported Kb for input O=C(O)CCNC(=O)c1ccc(C(Nc2ccc(-n3cnc(Cl)c3)nc2)C2CCCC2)cc1 (single isomer, unassigned)
Response line: 65

---

- measurement.target: human glucagon receptor (Homo sapiens (Human))
- protocol.details: Glucagon cAMP Assay (Cisbio cAMP detection)
- Assay type: cell-based
- experimental.conditions: CHOK1 cells stably transfected with the human glucagon receptor; block of glucagon induced cAMP production; Kb by modified Cheng-Prusoff equation
- Procedure: The Cisbio cAMP detection assay is used to determine the ability of punitive glucagon antagonist to block glucagon induced cAMP production. Potential glucagon antagonists are re-suspended and diluted in 100% DMSO. […] Plates are incubated for an additional 60 min at room temperature prior to being read on the Perkin Elmer fluorescent plate reader. […] Converted data is then analyzed using the Pfizer data analysis program. IC50 values are determined from the generated sigmoidal dose response curves. […]
Measured Kb, listed per entry for reference.
Numbers only here, please. The scale is nM.

Observe how each entry below is paired with its result.
CC(C)(C)[C@H](Nc1ccc(-n2cc(C(F)(F)F)cn2)nc1)c1ccc(C(=O)NCCC(=O)O)cc1 (single isomer, unassigned; isomer 1) [Example 179] : 134
CCCC(Oc1cc(C)c(-n2cc(Cl)cn2)c(C)c1)c1ccc(C(=O)NCCC(=O)O)cc1 (single isomer, unassigned) [Example 145] : 156
CCCC(Oc1ccc(-n2ccc(C)c2C#N)cc1)c1ccc(C(=O)NCCC(=O)O)cc1 (racemic) [Example 37] : 1760

Prompt line: // returns reported Kb for input CCCC(Oc1ccc(-n2nc(C)cc2OCC)cc1)c1ccc(C(=O)NCCC(=O)O)cc1 (racemic) [Example 32]
Response line: 1590

Prompt line: // returns reported Kb for input Cc1cc(C(Nc2ccc(C(=O)NCCC(=O)O)cn2)C2CCCC2)cc(C)c1-n1cc(C(F)(F)F)cn1 (single isomer, unassigned; isomer 2) [Example 171]
Response line: 150

Prompt line: // returns reported Kb for input CC(C)C[C@H](Nc1ccc(C(=O)NCCC(=O)O)cn1)c1ccc(-n2cc(C(F)(F)F)cn2)nc1 (single isomer, unassigned) [Example 142]
Response line: 883

---

- measurement.target: human glucagon receptor (Homo sapiens (Human))
- protocol.details: Glucagon cAMP Assay (Cisbio cAMP detection)
- Format: cell-based
- experimental.conditions: CHOK1 cells stably transfected with the human glucagon receptor; block of glucagon induced cAMP production; Kb by modified Cheng-Prusoff equation
assay.metric: Kb (nM)
Numbers only here, please. The scale is nM.

CCCC(Nc1ccc(-n2cc(CC)c(C)n2)nc1)c1ccc(C(=O)NCCC(=O)O)cc1 (single isomer, unassigned; isomer 1) [Example 166] : 94.8
CCCC(Oc1ccc(-n2ccc(C)n2)cc1)c1ccc(C(=O)NCCC(=O)O)cc1 (racemic) : 1360

Prompt line: // returns reported Kb for input Cc1cc(OC(c2ccc(C(=O)NCCC(=O)O)cc2)C2CCC2)cc(C)c1-n1cc(C(F)(F)F)cn1 (racemic) [Example 151]
Response line: 227

Prompt line: // returns reported Kb for input Cc1cc(OC(c2ccc(C(=O)NCCC(=O)O)cc2)C2CC(C)(C)C2)cc(C)c1-n1cc(C(F)(F)F)cn1 (racemic)
Response line: 301

Prompt line: // returns reported Kb for input CCCCc1ccn(-c2ccc(OC(CCC)c3ccc(C(=O)NCCC(=O)O)cc3)cc2)n1 (racemic)
Response line: 1450
